Source of measurements: patent US4835156A

Test: Toxicity, indicative LD50, intraperitoneal
Conditions: mouse, in vivo, ip, Swiss mice, 7 days post-administration
Hi! Could you tag entries with LD50 at 168 h below 200 mg/kg as true (1), and those at or above as false (0)? Much appreciated.

moleculeSmiles	labelClass
C(CN1CCN(Cc2ccc3c(c2)OCO3)CC1)=C1c2ccccc2CCc2ccccc21	false (0)
O=C(CN1CCN(CC=C2c3ccccc3CCc3ccccc32)CC1)NC(=O)NCN1CCOCC1	true (1)
O=C(C=CCN1CCN(CC=C2c3ccccc3CCc3ccccc32)CC1)c1ccccc1	true (1)
C(CN1CCN(Cc2ccccn2)CC1)=C1c2ccccc2CCc2ccccc21	true (1)
O=C(CN1CCN(CC=C2c3ccccc3CCc3ccccc32)CC1)NC12CC3CC(CC(C3)C1)C2	false (0)
C(CN1CCN(Cc2cccnc2)CC1)=C1c2ccccc2CCc2ccccc21	true (1)
O=C(CN1CCN(CC=C2c3ccccc3CCc3ccccc32)CC1)N1CCCCC1	true (1)
C(CN1CCN(Cc2ccco2)CC1)=C1c2ccccc2CCc2ccccc21	true (1)
C(=Cc1ccccc1)CN1CCN(CC=C2c3ccccc3CCc3ccccc32)CC1	false (0)
C(CN1CCN(Cc2ccccc2)CC1)=C1c2ccccc2CCc2ccccc21	false (0)
OCCN1CCN(CC=C2c3ccccc3CCc3ccccc32)CC1	true (1)
C(CN1CCN(Cc2cccs2)CC1)=C1c2ccccc2CCc2ccccc21	false (0)
O=C(CN1CCN(CC=C2c3ccccc3CCc3ccccc32)CC1)N1CCOCC1	true (1)
O=C(O)CN1CCN(CC=C2c3ccccc3CCc3ccccc32)CC1	false (0)
CCOC(=O)CN1CCN(CC=C2c3ccccc3CCc3ccccc32)CC1	true (1)
C=CCN1CCN(CC=C2c3ccccc3CCc3ccccc32)CC1	true (1)
COC(=O)c1cc(CN2CCN(CC=C3c4ccccc4CCc4ccccc43)CC2)ccc1O	false (0)
C(CN1CCN(Cc2ccncc2)CC1)=C1c2ccccc2CCc2ccccc21	true (1)
O=C(CN1CCN(CC=C2c3ccccc3CCc3ccccc32)CC1)N1CCCC1	false (0)
COC(=O)C=CCN1CCN(CC=C2c3ccccc3CCc3ccccc32)CC1	false (0)
